Every entry's value here was drawn from patent US12458605B2.

# ASSAY_REMARKS: Average particle size (ζ-Average) and PDI by dynamic light scattering (Zetasizer Nano ZSP)
# Format: physicochemical
# PROTOCOL_CONDITIONS: FlucmRNA-loaded LNP, lipid:DSPC:cholesterol:DMG-PEG2K 50:10:38.5:1.5
For each record, write down the corresponding ζ-Average (nm).

Worked examples, 5 molecules total:
>  <MOLECULE>
CCCCCC(CCCC)C(=O)OCCCCCCC(O)(CCCCCCOC(=O)C(CCCC)CCCCC)CCCCN(CCC)CCC (stereo not shown)

>  <ζ-Average (nm)>
113.50 nm

$$$$
>  <MOLECULE>
CCCCC(CC)C(=O)OCCCCCCC(O)(CCCCCCOC(=O)C(CC)CCCC)CCCCN(CCC)CCC (stereo not shown)

>  <ζ-Average (nm)>
218.20 nm

$$$$
>  <MOLECULE>
CCCCCCCC(CCCC)C(=O)OCCCCCCC(O)(CCCCCCOC(=O)C(CCCC)CCCCCCC)CCCCN(CCC)CCC (stereo not shown)

>  <ζ-Average (nm)>
95.29 nm

$$$$
>  <MOLECULE>
CCCCCCCCCCCCCCCC(=O)OCCCCCCC(O)(CCCCCCOC(=O)CCCCCCCCCCCCCCC)CCCCN(CCC)CCC

>  <ζ-Average (nm)>
158.30 nm

$$$$
>  <MOLECULE>
CCCCCCCCCCCCCCC(C)C(=O)OCCCCCCC(O)(CCCCCCOC(=O)C(C)CCCCCCCCCCCCCC)CCCCOC(=O)C1CCN(C)CC1 (stereo not shown) [CL15F 16-1]

>  <ζ-Average (nm)>
187.70 nm

$$$$

For each listed entry, give its ζ-Average (nm).
1. CCCCCCCCCCCC(CCC)C(=O)OCCCCCCC(O)(CCCCCCOC(=O)C(CCC)CCCCCCCCCCC)CCCCOC(=O)C1CCN(C)CC1 (stereo not shown) [CL15F 13-3]
2. CCCCCC(CCC)C(=O)OCCCCCCC(O)(CCCCCCOC(=O)C(CCC)CCCCC)CCCCOC(=O)C1CCN(C)CC1 (stereo not shown) [CL15F 7-3]

[out]
1: 142.90 nm; 2: 370.30 nm

----------
# ASSAY_REMARKS: siRNA/mRNA encapsulation rate by Ribogreen reagent (section IV)
# Assay type: physicochemical
# PROTOCOL_CONDITIONS: F7siRNA-loaded LNP, 50:10:38.5:1.5, N/P ratio 6
For each record, write down the corresponding % siRNA encapsulation.
One number for each entry, in %.

Worked examples, 3 molecules total:
>  <MOLECULE>
CCCCCCCC(CCCCC)C(=O)OCCCCCCC(O)(CCCCCCOC(=O)C(CCCCC)CCCCCCC)CCCCOC(=O)C1CCN(C)CC1 (stereo not drawn) [CL15F 9-5]

>  <ENDPOINT_VALUE>
100.1

$$$$
>  <MOLECULE>
CCCCCCC(CCCCC)C(=O)OCCCCCCC(O)(CCCCCCOC(=O)C(CCCCC)CCCCCC)CCCCN(CCC)CCC (stereo not drawn)

>  <ENDPOINT_VALUE>
99.7

$$$$
>  <MOLECULE>
CCCCCCCCCCC(CCCCCCCCCC)C(=O)OCCCCCCC(O)(CCCCCCOC(=O)C(CCCCCCCCCC)CCCCCCCCCC)CCCCN(CCC)CCC

>  <ENDPOINT_VALUE>
99.2

$$$$

For each listed entry, give its % siRNA encapsulation.
1. CCCCCCCCCC(CCCCCCCCC)C(=O)OCCCCCCC(O)(CCCCCCOC(=O)C(CCCCCCCCC)CCCCCCCCC)CCCCN(CCC)CCC
2. CCCCCCCCC(CCCCCCCC)C(=O)OCCCCCCC(O)(CCCCCCOC(=O)C(CCCCCCCC)CCCCCCCC)CCCCN(CCC)CCC
3. CC(CCC(C(=O)OCCCCCCC(O)(CCCCCCOC(=O)C(CCC(C)CC(C)(C)C)C(C)CC(C)(C)C)CCCCOC(=O)C1CCN(C)CC1)C(C)CC(C)(C)C)CC(C)(C)C (stereo not drawn)

[out]
[100.1, 99.9, 100.7]

----------
# ASSAY_REMARKS: siRNA/mRNA encapsulation rate by Ribogreen reagent (section IV)
# Type: physicochemical
# PROTOCOL_CONDITIONS: F7siRNA-loaded LNP, 50:10:38.5:1.5, N/P ratio 6
EXPERIMENTAL_READOUT: % siRNA encapsulation (%)
Answers are plain numbers, in %.

For each listed entry, give its % siRNA encapsulation.
1. CCCCCCC(CCCC)C(=O)OCCCCCCC(O)(CCCCCCOC(=O)C(CCCC)CCCCCC)CCCCN(CCC)CCC (stereo not shown)
2. CCCCCC(CCCCC)C(=O)OCCCCCCC(O)(CCCCCCOC(=O)C(CCCCC)CCCCC)CCCCN(CCC)CCC
3. CCCCCCCCC(CCCC)C(=O)OCCCCCCC(O)(CCCCCCOC(=O)C(CCCC)CCCCCCCC)CCCCOC(=O)C1CCN(C)CC1 (stereo not shown) [CL15F 10-4]
4. CCCCCCCC/C=C\CCCCCCCC(=O)OCCCCCCC(O)(CCCCCCOC(=O)CCCCCCC/C=C\CCCCCCCC)CCCCOC(=O)C1CCN(C)CC1 [CL15H6, reference compound]
5. CCCCCCCCCC(CCCCCCC)C(=O)OCCCCCCC(O)(CCCCCCOC(=O)C(CCCCCCC)CCCCCCCCC)CCCCN(CCC)CCC (stereo not shown)

[out]
100.0
100.1
100.3
100.2
99.8

For each listed entry, give its % siRNA encapsulation.
1. CCCCCCCC(CCCCC)C(=O)OCCCCCCC(O)(CCCCCCOC(=O)C(CCCCC)CCCCCCC)CCCCN(CCC)CCC (stereo not shown)
2. CCCCCCCCC(CCCC)C(=O)OCCCCCCC(O)(CCCCCCOC(=O)C(CCCC)CCCCCCCC)CCCCN(CCC)CCC (stereo not shown)

[out]
[99.9, 100.1]

----------
For each record, write down the corresponding ζ-Average (nm).
# ASSAY_REMARKS: Average particle size (ζ-Average) and PDI by dynamic light scattering (Zetasizer Nano ZSP)
# Type: physicochemical
# PROTOCOL_CONDITIONS: FlucmRNA-loaded LNP, lipid:DSPC:cholesterol:DMG-PEG2K 50:10:38.5:1.5
Give bare numbers, in nm.

Worked examples, 3 compounds total:
>  <COMPOUND>
CCCCCCCCCC(CCCCC)C(=O)OCCCCCCC(O)(CCCCCCOC(=O)C(CCCCC)CCCCCCCCC)CCCCOC(=O)C1CCN(C)CC1 (stereo not shown) [CL15F 11-5]

>  <ζ-Average (nm)>
108.90

$$$$
>  <COMPOUND>
CCCCCCCC(CCCCC)C(=O)OCCCCCCC(O)(CCCCCCOC(=O)C(CCCCC)CCCCCCC)CCCCN(CCC)CCC (stereo not shown) [CL4F 9-5]

>  <ζ-Average (nm)>
89.41

$$$$
>  <COMPOUND>
CCCCCC(CCCCC)C(=O)OCCCCCCC(O)(CCCCCCOC(=O)C(CCCCC)CCCCC)CCCCN(CCC)CCC [CL4F 7-5]

>  <ζ-Average (nm)>
109.80

$$$$

As a next step, examine the compound that follows.
[in] Reported ζ-Average (nm) for CC(CCC(C(=O)OCCCCCCC(O)(CCCCCCOC(=O)C(CCC(C)CC(C)(C)C)C(C)CC(C)(C)C)CCCCOC(=O)C1CCN(C)CC1)C(C)CC(C)(C)C)CC(C)(C)C (stereo not shown) [CL15G6] : what is it?
[out] 102.40

----------
# ASSAY_REMARKS: Average particle size (ζ-Average) and PDI by dynamic light scattering (Zetasizer Nano ZSP)
# Assay type: physicochemical
# PROTOCOL_CONDITIONS: FlucmRNA-loaded LNP, lipid:DSPC:cholesterol:DMG-PEG2K 50:10:38.5:1.5
For each record, write down the corresponding ζ-Average (nm).
Answers are plain numbers, in nm.

Worked examples, 4 compounds total:
>  <COMPOUND>
CCCCCCCCC(CCCC)C(=O)OCCCCCCC(O)(CCCCCCOC(=O)C(CCCC)CCCCCCCC)CCCCOC(=O)C1CCN(C)CC1 (stereo not shown) [CL15F 10-4]

>  <ζ-Average (nm)>
146.10

$$$$
>  <COMPOUND>
CCCCCCCCCCCCC(CC)C(=O)OCCCCCCC(O)(CCCCCCOC(=O)C(CC)CCCCCCCCCCCC)CCCCOC(=O)C1CCN(C)CC1 (stereo not shown) [CL15F 14-2]

>  <ζ-Average (nm)>
158.90

$$$$
>  <COMPOUND>
CCCCCCCCCC(CCCCCCCCC)C(=O)OCCCCCCC(O)(CCCCCCOC(=O)C(CCCCCCCCC)CCCCCCCCC)CCCCN(CCC)CCC

>  <ζ-Average (nm)>
81.13

$$$$
>  <COMPOUND>
CCCCCCC(CCCCCC)C(=O)OCCCCCCC(O)(CCCCCCOC(=O)C(CCCCCC)CCCCCC)CCCCOC(=O)C1CCN(C)CC1 [CL15F 8-6]

>  <ζ-Average (nm)>
132.00

$$$$

For each listed entry, give its ζ-Average (nm).
1. CCCCCCCC(CCCCCCC)C(=O)OCCCCCCC(O)(CCCCCCOC(=O)C(CCCCCCC)CCCCCCC)CCCCOC(=O)C1CCN(C)CC1 [CL15F 9-7]
2. CCCCCCCCCCCCCCC(C)C(=O)OCCCCCCC(O)(CCCCCCOC(=O)C(C)CCCCCCCCCCCCCC)CCCCN(CCC)CCC (stereo not shown)
3. CCCCCCCCCCCCC(CC)C(=O)OCCCCCCC(O)(CCCCCCOC(=O)C(CC)CCCCCCCCCCCC)CCCCN(CCC)CCC (stereo not shown)
4. CCCCCCCCCC(CCCCCC)C(=O)OCCCCCCC(O)(CCCCCCOC(=O)C(CCCCCC)CCCCCCCCC)CCCCOC(=O)C1CCN(C)CC1 (stereo not shown) [CL15F 11-6]
5. CCCCCCCC(CCCCCCC)C(=O)OCCCCCCC(O)(CCCCCCOC(=O)C(CCCCCCC)CCCCCCC)CCCCN(CCC)CCC
6. CCCCCCCC(CCC)C(=O)OCCCCCCC(O)(CCCCCCOC(=O)C(CCC)CCCCCCC)CCCCOC(=O)C1CCN(C)CC1 (stereo not shown) [CL15F 9-3]
7. CCCCCCCCC(CCCCC)C(=O)OCCCCCCC(O)(CCCCCCOC(=O)C(CCCCC)CCCCCCCC)CCCCOC(=O)C1CCN(C)CC1 (stereo not shown) [CL15F 10-5]

[out]
107.60
69.08
74.02
106.50
81.30
196.80
113.90

For each listed entry, give its ζ-Average (nm).
1. CCCCCCCCCCC(CCCCCC)C(=O)OCCCCCCC(O)(CCCCCCOC(=O)C(CCCCCC)CCCCCCCCCC)CCCCN(CCC)CCC (stereo not shown)
2. CCCCCC(CCC)C(=O)OCCCCCCC(O)(CCCCCCOC(=O)C(CCC)CCCCC)CCCCN(CCC)CCC (stereo not shown)

[out]
1. 82.84
2. 133.90
